Assay: Stability of peroxygen-releasing compounds during storage at 40° C., iodometric titration of hydrogen peroxide (Example 4)
Assay type: physicochemical
# % Remaining H2O2 Day 14 listing for each entry below
measured parameter: % Remaining H2O2 Day 14 (%)

molecule | observed measurement
O=C([O-])[O-].O=C([O-])[O-].OO.OO.OO.[Na+].[Na+].[Na+].[Na+] [Sodium percarbonate, sodium percarbonate] | 99
O=C([O-])[O-].O=C([O-])[O-].OO.OO.OO.[Na+].[Na+].[Na+].[Na+] [Sodium percarbonate (FB 400), sodium percarbonate] | 96
O=C([O-])[O-].O=C([O-])[O-].OO.OO.OO.[Na+].[Na+].[Na+].[Na+] [Sodium percarbonate (FB 400C), sodium percarbonate] | 96
[Ca+2].[O-][O-] [Calcium peroxide, calcium peroxide] | 97
